PROCEDURE TEXT: Inhibition of wild type HIV-1 clade B NL4-3 Gag polyprotein SP1 infected in human MT4 cells
Type: cell-based
CONDITION CONTEXT: Human immunodeficiency virus 1, clade B NL4-3, MT4
Can you tell me IC50 for the items I'm about to list?
Give the number; µM is assumed, so skip it.

[ask] Quick check: IC50 of CC(C)C1=C2[C@H]3CC[C@@H]4[C@@]5(C)CC[C@H](OC(=O)CC(C)(C)C(=O)O)C(C)(C)[C@@H]5CC[C@@]4(C)[C@]3(C)CC[C@@]2(C(=O)C(=O)NCC2CCCCC2)CC1=O ?
[reply] 0.011

[ask] Quick check: IC50 of CC(C)C1=C2[C@H]3CC[C@@H]4[C@@]5(C)CC[C@H](OC(=O)CC(C)(C)C(=O)O)C(C)(C)[C@@H]5CC[C@@]4(C)[C@]3(C)CC[C@@]2(C(=O)C(=O)NC(C)(C)c2ccccc2)CC1=O ?
[reply] 0.018

[ask] Quick check: IC50 of CC(C)C1=C2[C@H]3CC[C@@H]4[C@@]5(C)CC[C@H](OC(=O)CC(C)(C)C(=O)O)C(C)(C)[C@@H]5CC[C@@]4(C)[C@]3(C)CC[C@@]2(C(=O)C(=O)NCc2cccc(Cl)c2)CC1=O ?
[reply] 0.016

[ask] Quick check: IC50 of CC(C)C1=C2[C@H]3CC[C@@H]4[C@@]5(C)CC[C@H](OC(=O)CC(C)(C)C(=O)O)C(C)(C)[C@@H]5CC[C@@]4(C)[C@]3(C)CC[C@@]2(C(=O)C(=O)NCCCN2CCCC2)CC1=O ?
[reply] 1.18

[ask] Quick check: IC50 of CC(C)C1=C2[C@H]3CC[C@@H]4[C@@]5(C)CC[C@H](OC(=O)CC(C)(C)C(=O)O)C(C)(C)[C@@H]5CC[C@@]4(C)[C@]3(C)CC[C@@]2(C(=O)C(=O)NCc2ccc(Cl)cc2)CC1=O ?
[reply] 0.012

[ask] Quick check: IC50 of CC(C)C1=C2[C@H]3CC[C@@H]4[C@@]5(C)CC[C@H](OC(=O)CC(C)(C)C(=O)O)C(C)(C)[C@@H]5CC[C@@]4(C)[C@]3(C)CC[C@@]2(C(=O)C(=O)NCCN2CCCC2)CC1=O ?
[reply] 1

[ask] Quick check: IC50 of CC(C)C1=C2[C@H]3CC[C@@H]4[C@@]5(C)CC[C@H](OC(=O)CC(C)(C)C(=O)O)C(C)(C)[C@@H]5CC[C@@]4(C)[C@]3(C)CC[C@@]2(C(=O)C(=O)N2CCC2)CC1=O ?
[reply] 5.6

[ask] Quick check: IC50 of Cc1ccc(NC(=O)C(=O)[C@@]23CC[C@]4(C)[C@H](CC[C@@H]5[C@@]6(C)CC[C@H](OC(=O)CC(C)(C)C(=O)O)C(C)(C)[C@@H]6CC[C@]54C)C2=C(C(C)C)C(=O)C3)cc1 ?
[reply] 0.251

[ask] Quick check: IC50 of CC(C)C1=C2[C@H]3CC[C@@H]4[C@@]5(C)CC[C@H](OC(=O)CC(C)(C)C(=O)O)C(C)(C)[C@@H]5CC[C@@]4(C)[C@]3(C)CC[C@@]2(C(=O)C(=O)NCc2ccc(C(F)(F)F)cc2)CC1=O ?
[reply] 0.135

[ask] Quick check: IC50 of CC(C)C1=C2[C@H]3CC[C@@H]4[C@@]5(C)CC[C@H](OC(=O)CC(C)(C)C(=O)O)C(C)(C)[C@@H]5CC[C@@]4(C)[C@]3(C)CC[C@@]2(C(=O)C(=O)N[C@H](C)c2ccc(Cl)cc2)CC1=O ?
[reply] 0.018

[ask] Quick check: IC50 of CC(C)C1=C2[C@H]3CC[C@@H]4[C@@]5(C)CC[C@H](OC(=O)CC(C)(C)C(=O)O)C(C)(C)[C@@H]5CC[C@@]4(C)[C@]3(C)CC[C@@]2(C(=O)C(=O)NCc2ccc(Cl)cc2Cl)CC1=O ?
[reply] 0.037

[ask] Quick check: IC50 of CC(C)C1=C2[C@H]3CC[C@@H]4[C@@]5(C)CC[C@H](OC(=O)CC(C)(C)C(=O)O)C(C)(C)[C@@H]5CC[C@@]4(C)[C@]3(C)CC[C@@]2(C(=O)C(=O)NCc2cccs2)CC1=O ?
[reply] 0.021

[ask] Quick check: IC50 of CC(C)C1=C2[C@H]3CC[C@@H]4[C@@]5(C)CC[C@H](OC(=O)CC(C)(C)C(=O)O)C(C)(C)[C@@H]5CC[C@@]4(C)[C@]3(C)CC[C@@]2(C(=O)C(=O)NCc2ccc(F)cc2)CC1=O ?
[reply] 0.016

[ask] Quick check: IC50 of CC(C)C1=C2[C@H]3CC[C@@H]4[C@@]5(C)CC[C@H](OC(=O)CC(C)(C)C(=O)O)C(C)(C)[C@@H]5CC[C@@]4(C)[C@]3(C)CC[C@@]2(C(=O)C(=O)NCc2c(Cl)cccc2Cl)CC1=O ?
[reply] 0.085

[ask] Quick check: IC50 of CNC(=O)C(=O)[C@@]12CC[C@]3(C)[C@H](CC[C@@H]4[C@@]5(C)CC[C@H](OC(=O)CC(C)(C)C(=O)O)C(C)(C)[C@@H]5CC[C@]43C)C1=C(C(C)C)C(=O)C2 ?
[reply] 1.32

[ask] Quick check: IC50 of CC(C)C1=C2[C@H]3CC[C@@H]4[C@@]5(C)CC[C@H](OC(=O)CC(C)(C)C(=O)O)C(C)(C)[C@@H]5CC[C@@]4(C)[C@]3(C)CC[C@@]2(C(=O)C(=O)NCc2ccccc2Cl)CC1=O ?
[reply] 0.017

[ask] Quick check: IC50 of COc1ccc(CNC(=O)C(=O)[C@@]23CC[C@]4(C)[C@H](CC[C@@H]5[C@@]6(C)CC[C@H](OC(=O)CC(C)(C)C(=O)O)C(C)(C)[C@@H]6CC[C@]54C)C2=C(C(C)C)C(=O)C3)cc1 ?
[reply] 0.099

[ask] Quick check: IC50 of CC(C)C1=C2[C@H]3CC[C@@H]4[C@@]5(C)CC[C@H](OC(=O)CC(C)(C)C(=O)O)C(C)(C)[C@@H]5CC[C@@]4(C)[C@]3(C)CC[C@@]2(C(=O)C(=O)NC2(c3ccc(Cl)cc3)CCC2)CC1=O ?
[reply] 0.029
